assayed-system: Estrogen receptor (Homo sapiens, UniProt Q92731+P03372)
condition-parameters: mcf-7
Description: Antagonist effect in breast tissue was assayed by inhibition of estrogen stimulated MCF-7 cell proliferation
measured-property: IC50 (nM)

Worked cases, answers included:
CC(C)COC(=O)c1ccc2c(C(=O)c3ccc(OCCN4CCCCC4)cc3)c(-c3ccc(O)cc3)sc2c1 = 40
CCOP(=O)(OCC)c1ccc2c(C(=O)c3ccc(OCCN4CCCCC4)cc3)c(-c3ccc(O)cc3)sc2c1 = 200
CN(C)C(=O)c1ccc(-c2sc3cc(O)ccc3c2C(=O)c2ccc(OCCN3CCCCC3)cc2)cc1 = 20

I: C#Cc1ccc(-c2sc3cc(O)ccc3c2C(=O)c2ccc(OCCN3CCCCC3)cc2)cc1
II: O=C(O)c1ccc(-c2sc3cc(O)ccc3c2C(=O)c2ccc(OCCN3CCCCC3)cc2)cc1
Task item: Identify the item whose IC50 is the smaller number: I or II Mark your answer with the label of the selected entry.
Reply: I
(I: 0.8 nM, II: 325 nM)

P: C#Cc1ccc2c(C(=O)c3ccc(OCCN4CCCCC4)cc3)c(-c3ccc(O)cc3)sc2c1
Q: CCOP(=O)(OCC)c1ccc(-c2sc3cc(O)ccc3c2C(=O)c2ccc(OCCN3CCCCC3)cc2)cc1
R: CCOC(=O)c1ccc(-c2sc3cc(O)ccc3c2C(=O)c2ccc(OCCN3CCCCC3)cc2)cc1
S: C=Cc1ccc(-c2sc3cc(O)ccc3c2C(=O)c2ccc(OCCN3CCCCC3)cc2)cc1
Task item: Kindly order the items shown according to IC50, from the highest value down. Use the labels to give the requested order.
Reply: Q, R, P, S
(Q: 210 nM, R: 50 nM, P: 20 nM, S: 7 nM)

P: COC(=O)c1ccc2c(C(=O)c3ccc(OCCN4CCCCC4)cc3)c(-c3ccc(O)cc3)sc2c1
Q: COC(=O)c1ccc(-c2sc3cc(C(=O)OC)ccc3c2C(=O)c2ccc(OCCN3CCCCC3)cc2)cc1
R: CC(=O)c1ccc2c(C(=O)c3ccc(OCCN4CCCCC4)cc3)c(-c3ccc(O)cc3)sc2c1
Task item: # rank by IC50, ascending (min first) Use the labels to give the requested order.
Reply: P, R, Q
(P: 30 nM, R: 60 nM, Q: 1000 nM)

I: CCCCOC(=O)c1ccc2c(C(=O)c3ccc(OCCN4CCCCC4)cc3)c(-c3ccc(O)cc3)sc2c1
II: NC(=O)c1ccc2c(C(=O)c3ccc(OCCN4CCCCC4)cc3)c(-c3ccc(O)cc3)sc2c1
Task item: Identify the item whose IC50 is the smaller number: I or II Mark your answer with the label of the selected entry.
Reply: I
(I: 40 nM, II: 1000 nM)

P: CC(=O)c1ccc(-c2sc3cc(O)ccc3c2C(=O)c2ccc(OCCN3CCCCC3)cc2)cc1
Q: COC(=O)c1ccc(-c2sc3ccccc3c2C(=O)c2ccc(OCCN3CCCCC3)cc2)cc1
Task item: Hi, I'm comparing P with Q and wondering which one has the bigger number for IC50. Any idea? Mark your answer with the label of the selected entry.
Reply: Q

A: CNC(=O)c1ccc(-c2sc3cc(O)ccc3c2C(=O)c2ccc(OCCN3CCCCC3)cc2)cc1
B: N#Cc1ccc(-c2sc3cc(O)ccc3c2C(=O)c2ccc(OCCN3CCCCC3)cc2)cc1
C: COC(=O)c1ccc2c(C(=O)c3ccc(OCCN4CCCCC4)cc3)c(-c3ccccc3)sc2c1
D: NC(=O)c1ccc(-c2sc3cc(O)ccc3c2C(=O)c2ccc(OCCN3CCCCC3)cc2)cc1
Task item: # rank by IC50, ascending (min first) Use the labels to give the requested order.
Reply: B, A, D, C
